System: Escherichia coli TOP10;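 further: peptides expressed intracellularly from a pBAD plasmid library in pooled LB shake-flask culture, induced with 0.3% L-arabinose, DNA abundance read by NGS, three biological replicates, DESeq2 with apeglm shrinkage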
Test: shrunken log2 fold change of peptide-encoding DNA abundance (4.5 h post-induction vs induction); higher = less antimicrobial activity (less host growth inhibition)
Conditions: time post-induction: 4.5 h; library: site-saturation at positions 5, 18, 19, 20
Use 0.02 as the dividing line for shrunken log2 fold change, with the line itself on the True side and lower values as False.

Identify whether the reported shrunken log2 fold change of the following sequence is 0.02 or greater: RRIRHRPPRLPRPRPRPDISPRP
False

Dear colleague, could you confirm whether RRIRMRPPRLPRPRPRPNRRPRP has shrunken log2 fold change at or above 0.02?
True

Item RRIRDRPPRLPRPRPRPYKDPRP with shrunken log2 fold change of 0.02 or above?
False

# bool: shrunken log2 fold change of RRIRTRPPRLPRPRPRPHEYPRP >= 0.02
False

Say whether RRIRFRPPRLPRPRPRPKDTPRP shows shrunken log2 fold change of 0.02 or more.
True

Kindly determine if shrunken log2 fold change recorded for RRIRCRPPRLPRPRPRPGISPRP is above or exactly 0.02.
False

Check this sequence for shrunken log2 fold change at or above 0.02: RRIRERPPRLPRPRPRPGFWPRP
True

Given RRIRARPPRLPRPRPRPARTPRP , state whether its shrunken log2 fold change is at least 0.02.
True

Please check the record RRIRDRPPRLPRPRPRPYMVPRP and state if its shrunken log2 fold change is at or above 0.02.
True

Hi, just wondering whether RRIRSRPPRLPRPRPRPNHCPRP shows shrunken log2 fold change of 0.02 or higher.
False

Reported shrunken log2 fold change reaches at least 0.02 for RRIRTRPPRLPRPRPRPNWQPRP ?
True

Is the recorded value of shrunken log2 fold change equal to or greater than 0.02 for this sequence? RRIRSRPPRLPRPRPRPSWLPRP
False

Does the sequence RRIRQRPPRLPRPRPRPSMRPRP have recorded shrunken log2 fold change that is 0.02 or more?
True

Textbook exercise: given the entry RRIRHRPPRLPRPRPRPRPKPRP , state whether its shrunken log2 fold change is greater than or equal to 0.02.
False

Quick check: does RRIRTRPPRLPRPRPRPRPHPRP have shrunken log2 fold change greater than or equal to 0.02?
True

Test whether the sequence RRIRHRPPRLPRPRPRPCAAPRP records shrunken log2 fold change of 0.02 or higher.
False

Exam item: decide whether the reported shrunken log2 fold change for RRIRTRPPRLPRPRPRPRRYPRP is at least 0.02.
True

Does RRIRTRPPRLPRPRPRPTNYPRP have a reported shrunken log2 fold change of at least 0.02?
False

Is the recorded value of shrunken log2 fold change equal to or greater than 0.02 for this sequence? RRIRTRPPRLPRPRPRPEDMPRP
False

Hi team, for RRIRVRPPRLPRPRPRPWFTPRP , is the recorded shrunken log2 fold change at or above 0.02?
True

I'd appreciate it if you could say whether RRIRRRPPRLPRPRPRPTFNPRP has shrunken log2 fold change at least equal to 0.02.
True

Say whether RRIRRRPPRLPRPRPRPGYDPRP shows shrunken log2 fold change of 0.02 or more.
True

Does the reported shrunken log2 fold change for RRIRCRPPRLPRPRPRPVFWPRP fall at or above the 0.02 mark?
True

Reported shrunken log2 fold change at or above 0.02? RRIRERPPRLPRPRPRPWFVPRP
False

Decide: is the reported value of shrunken log2 fold change for RRIRQRPPRLPRPRPRPATHPRP equal to or greater than 0.02?
False

Check if shrunken log2 fold change >= 0.02 (inclusive). Item: RRIRERPPRLPRPRPRPICCPRP
False

Could you tell me if the measured shrunken log2 fold change of RRIRNRPPRLPRPRPRPYNKPRP reaches 0.02 or more?
False

Check this sequence for shrunken log2 fold change at or above 0.02: RRIRNRPPRLPRPRPRPNFFPRP
True

Does shrunken log2 fold change meet or surpass 0.02 for RRIRLRPPRLPRPRPRPSDYPRP ?
False

Is it the case that RRIRTRPPRLPRPRPRPEVCPRP has shrunken log2 fold change reaching or exceeding 0.02?
True

API: above_or_equal(metric=shrunken log2 fold change, cutoff=0.02) for item RRIRARPPRLPRPRPRPFDWPRP
True

shrunken log2 fold change >= 0.02 for RRIRTRPPRLPRPRPRPRTSPRP ?
True

Is shrunken log2 fold change at least 0.02? Consider RRIRYRPPRLPRPRPRPCADPRP
False

Determine whether this sequence has shrunken log2 fold change no lower than 0.02: RRIRLRPPRLPRPRPRPWIHPRP
False

Quick check: does RRIRRRPPRLPRPRPRPIHVPRP have shrunken log2 fold change greater than or equal to 0.02?
True

Kindly determine if shrunken log2 fold change recorded for RRIRLRPPRLPRPRPRPITHPRP is above or exactly 0.02.
False

Quick check, shrunken log2 fold change >= 0.02? RRIRKRPPRLPRPRPRPMKAPRP
False

Quick check, shrunken log2 fold change >= 0.02? RRIRFRPPRLPRPRPRPVVEPRP
True

Decide: shrunken log2 fold change of RRIRNRPPRLPRPRPRPYGKPRP >= 0.02?
False

// inclusive: shrunken log2 fold change at least 0.02? input: RRIRDRPPRLPRPRPRPNPFPRP
False

API: above_or_equal(metric=shrunken log2 fold change, cutoff=0.02) for item RRIRSRPPRLPRPRPRPSASPRP
True

Reported shrunken log2 fold change at or above 0.02? RRIRLRPPRLPRPRPRPYRQPRP
False

Kindly determine if shrunken log2 fold change recorded for RRIRARPPRLPRPRPRPESIPRP is above or exactly 0.02.
False

Identify whether the reported shrunken log2 fold change of the following sequence is 0.02 or greater: RRIRYRPPRLPRPRPRPNEIPRP
False

Has RRIRFRPPRLPRPRPRPPYGPRP a recorded shrunken log2 fold change greater than or equal to 0.02?
False
